# Organism: Homo sapiens
# test description: Selectivity ratio of pIC50 for human nAChR alpha3/beta4 receptor to pIC50 for human nAChR alpha4/beta2 receptor

- compound: "CC(=O)Nc1ccccc1C(=O)OCC1CCCN(CCCc2ccccc2)C1 (stereo not given)"
  Ratio pIC50: -0.11
- compound: "CC1CC(=O)N(c2ccccc2C(=O)OCC2CCCN(CCCCOc3ccc(Cl)c(Cl)c3)C2)C1=O (stereo not given)"
  Ratio pIC50: 0.78
- compound: "CC1CC(=O)N(c2ccccc2C(=O)OCC2CCCN(CCOc3ccc4ccccc4c3)C2)C1=O (stereo not given)"
  Ratio pIC50: -0.04
- compound: "c1ccc(CCCN2CCCC(COCc3cn(Cc4ccccc4-c4ccccc4)nn3)C2)cc1 (stereo not given)"
  Ratio pIC50: 0.39
- compound: "CC1CC(=O)N(c2ccccc2C(=O)OCC2CCCN(CCOc3cccc(Cl)c3)C2)C1=O (stereo not given)"
  Ratio pIC50: 0.14
- compound: "O=C(OCC1CCCN(CCc2ccccc2)C1)c1ccccc1N1C(=O)CC(Cc2ccccc2)C1=O (stereo not given)"
  Ratio pIC50: 0.42
- compound: "CC1CC(=O)N(c2ccccc2C(=O)OCC2CCCN(CCCCCOc3ccc(Cl)c(Cl)c3)C2)C1=O (stereo not given)"
  Ratio pIC50: -0.28
- compound: "CCN1CC(OC(=O)c2ccccc2N2C(=O)CC(C)C2=O)C2CC1C1OC(C)(C)OC21 (stereo not given)"
  Ratio pIC50: 0.81
- compound: "Cc1ccc(OCCN2CCCC(COC(=O)c3ccccc3N3C(=O)CC(C)C3=O)C2)cc1 (stereo not given)"
  Ratio pIC50: 0.22
- compound: "CC1CC(=O)N(c2ccccc2C(=O)OCC2CCCN(CCOc3ccc(Cl)c(Cl)c3)C2)C1=O (stereo not given)"
  Ratio pIC50: 0.06
- compound: "CC1(C)CC(=O)N(c2ccccc2C(=O)OCC2CCCN(CCCc3ccccc3)C2)C1=O (single isomer, unassigned)"
  Ratio pIC50: 0.01
- compound: "O=C(OCC1CCCN(CCCc2ccccc2)C1)c1ccccc1-c1ccccc1 (stereo not given)"
  Ratio pIC50: 3.87
- compound: "O=C(OCC1=CCCN(CCCc2ccccc2)C1)c1ccccc1N1C(=O)CC(Cc2ccccc2)C1=O (stereo not given)"
  Ratio pIC50: -0.14
- compound: "O=C(OCC1CCCN(CCCCCOc2ccc(Cl)cc2)C1)c1ccccc1-c1ccccc1 (stereo not given)"
  Ratio pIC50: 0.02
- compound: "O=C(NCc1ccccc1-c1ccccc1)C1CCCN(CCCc2ccccc2)C1 (single isomer, unassigned)"
  Ratio pIC50: -0.06
- compound: "CC1CC(=O)N(c2ccccc2C(=O)OC[C@@H]2C[C@H](C3CCCCC3)CN(CCCc3ccccc3)C2)C1=O (stereo not given in full)"
  Ratio pIC50: 0.33
- compound: "O=C(OCC1CCCN(C(=O)CCc2ccccc2)C1)c1ccccc1-c1ccccc1 (stereo not given)"
  Ratio pIC50: 1.74
- compound: "C[C@@H]1CC(=O)N(c2ccccc2C(=O)OC[C@@H]2CCCN(CCCc3ccccc3)C2)C1=O"
  Ratio pIC50: 0.02
- compound: "CO[C@@H]1C[C@H](OC)C[C@@H](OCCN2CCCC(COC(=O)c3ccccc3N3C(=O)CC(C)C3=O)C2)C1 (stereo not given in full)"
  Ratio pIC50: 0.68
- compound: "CN1CCCC(COC(=O)c2ccccc2-c2ccccc2)C1 (single isomer, unassigned)"
  Ratio pIC50: -0.16
- compound: "O=C(OCC1CCCN(CCCn2cc(-c3ccccc3)nn2)C1)c1ccccc1-c1ccccc1 (single isomer, unassigned)"
  Ratio pIC50: 1.78
- compound: "O=C(OCC1CCCN(CCCc2ccccc2)C1)c1ccccc1-c1cccc2ccccc12 (stereo not given)"
  Ratio pIC50: 0.73
- compound: "O=C(OCC1CCCN(CCCc2ccccc2)C1)c1ccccc1N1C(=O)c2ccccc2C1=O (single isomer, unassigned)"
  Ratio pIC50: 0.07
- compound: "O=C(CCC1CCCNC1)c1ccccc1-c1ccccc1 (stereo not given)"
  Ratio pIC50: -0.14
- compound: "COc1ccccc1C(=O)OCC1CCCN(CCCc2ccccc2)C1 (single isomer, unassigned)"
  Ratio pIC50: 0.19

###

Measured IC50 by item
# system: Neuronal acetylcholine receptor; alpha3/beta4 (Homo sapiens, UniProt P30926+P32297)
# Sequence (P30926 whole entry): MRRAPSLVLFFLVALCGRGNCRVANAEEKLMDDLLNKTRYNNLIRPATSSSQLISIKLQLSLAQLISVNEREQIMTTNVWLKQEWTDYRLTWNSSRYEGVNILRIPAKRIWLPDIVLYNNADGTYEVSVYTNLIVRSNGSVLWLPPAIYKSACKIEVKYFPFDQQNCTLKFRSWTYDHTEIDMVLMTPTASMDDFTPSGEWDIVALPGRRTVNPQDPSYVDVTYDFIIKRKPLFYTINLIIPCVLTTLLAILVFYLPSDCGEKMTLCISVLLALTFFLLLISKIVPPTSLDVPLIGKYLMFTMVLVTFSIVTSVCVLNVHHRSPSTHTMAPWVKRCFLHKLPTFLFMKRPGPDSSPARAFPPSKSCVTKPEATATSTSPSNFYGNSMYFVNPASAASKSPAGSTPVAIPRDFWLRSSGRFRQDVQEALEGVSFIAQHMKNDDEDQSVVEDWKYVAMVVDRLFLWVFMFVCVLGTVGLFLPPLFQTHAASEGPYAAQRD
# Sequence (P32297 whole entry): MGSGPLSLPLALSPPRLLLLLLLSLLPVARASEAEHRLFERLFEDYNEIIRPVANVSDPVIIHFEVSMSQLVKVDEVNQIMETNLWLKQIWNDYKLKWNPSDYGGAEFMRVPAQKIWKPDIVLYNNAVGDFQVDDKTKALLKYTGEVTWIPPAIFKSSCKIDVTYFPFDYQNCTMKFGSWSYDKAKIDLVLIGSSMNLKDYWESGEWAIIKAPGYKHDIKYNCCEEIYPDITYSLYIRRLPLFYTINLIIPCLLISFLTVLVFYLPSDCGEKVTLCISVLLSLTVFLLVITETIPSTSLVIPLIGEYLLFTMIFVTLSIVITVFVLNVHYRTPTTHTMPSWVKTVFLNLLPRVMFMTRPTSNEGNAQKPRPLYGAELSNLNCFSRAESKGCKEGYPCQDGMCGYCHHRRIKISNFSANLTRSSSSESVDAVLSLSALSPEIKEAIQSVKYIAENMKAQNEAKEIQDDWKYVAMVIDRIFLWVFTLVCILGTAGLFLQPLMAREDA
# test description: Antagonist activity at human nAChR alpha3/beta4 receptor expressed in HEK ts201 cells assessed as calcium accumulation by fluorescence analysis
# Format: functional, cell-based
# stated conditions: read-out: pIC50 (converted)

- molecule: "CC1CC(=O)N(c2ccccc2C(=O)OCC2CCCN(CCOc3cccc(-c4ccccc4)c3)C2)C1=O (centres undefined)"
  IC50 [µM]: 26.9
- molecule: "O=C(OCC1CCCN(CCCn2cc(-c3ccccc3)nn2)C1)c1ccccc1-c1ccccc1 (single isomer, unassigned)"
  IC50 [µM]: 389
- molecule: "O=C(NCc1ccccc1-c1ccccc1)C1CCCN(CCCc2ccccc2)C1 (single isomer, unassigned)"
  IC50 [µM]: 14.5
- molecule: "O=C(CCc1ccccc1)N1CCCC(CN(Cc2ccccc2-c2ccccc2)Cc2ccccc2-c2ccccc2)C1 (centres undefined)"
  IC50 [µM]: 40.7

###

# system: Neuronal acetylcholine receptor; alpha3/beta4 (Homo sapiens, UniProt P30926+P32297)
# test description: Antagonist activity at human nAChR alpha3/beta4 receptor expressed in HEK ts201 cells assessed as calcium accumulation by fluorescence analysis
# Type: functional, cell-based
# stated conditions: read-out: IC50
Measured IC50 by item
measurement type: IC50 (µM)

- compound: "O=C(OC1CCCN(C(=O)CCc2ccccc2)C1)c1ccccc1-c1ccccc1 (centres undefined)"
  unit spec: "µM"
  sign qualifier: "="
  value: 6
- compound: "O=C(NCc1cccc2ccccc12)c1ccccc1-c1ccccc1"
  unit spec: "µM"
  sign qualifier: ">"
  value: 100
- compound: "O=C(OCC1CCCN(CCCc2ccccc2)C1)c1ccccc1-c1ccccc1 (centres undefined)"
  unit spec: "µM"
  sign qualifier: ">"
  value: 100
- compound: "O=C(OC1CCCN(CCCc2ccccc2)C1)c1ccccc1-c1ccccc1 (single isomer, unassigned)"
  unit spec: "µM"
  sign qualifier: "="
  value: 2.7
- compound: "O=C(Nc1ccncn1)c1ccccc1-c1ccccc1"
  unit spec: "µM"
  sign qualifier: "="
  value: 39.6
- compound: "O=C(OCC1CCCN(CCCc2ccccc2)C1)c1ccccc1C(F)(F)F (single isomer, unassigned)"
  unit spec: "µM"
  sign qualifier: "="
  value: 5.5
- compound: "O=C(Nc1ccccc1)c1ccccc1-c1ccccc1"
  unit spec: "µM"
  sign qualifier: "="
  value: 10.7
- compound: "O=C(OCC1CCCN(C(=O)CCc2ccccc2)C1)c1ccccc1-c1ccccc1 (centres undefined)"
  unit spec: "µM"
  sign qualifier: ">"
  value: 100
- compound: "O=C(OCC1CCN(C(=O)CCc2ccccc2)CC1)c1ccccc1-c1ccccc1"
  unit spec: "µM"
  sign qualifier: "="
  value: 9.4
- compound: "O=C(OCC1CCCN(C(=O)CCc2ccccc2)C1)c1ccccc1C(F)(F)F (centres undefined)"
  unit spec: "µM"
  sign qualifier: "="
  value: 6.3
- compound: "O=C(Nc1cccc2ccccc12)c1ccccc1-c1ccccc1"
  unit spec: "µM"
  sign qualifier: "="
  value: 18.2
- compound: "O=C(Nc1ccccn1)c1ccccc1-c1ccccc1"
  unit spec: "µM"
  sign qualifier: "="
  value: 17.5
- compound: "O=C(OCC1CCN(CCCc2ccccc2)CC1)c1ccccc1-c1ccccc1"
  unit spec: "µM"
  sign qualifier: "="
  value: 10.5
- compound: "O=C(NCc1ccccc1)c1ccccc1-c1ccccc1"
  unit spec: "µM"
  sign qualifier: "="
  value: 7.6

###

Measured Ratio IC50 by item
# Species on record: Homo sapiens
# test description: Selectivity ratio of IC50 for human nAChR alpha3/beta4 receptor to IC50 for human nAChR alpha4/beta2 receptor

- chemical smiles: "O=C(Nc1ccccn1)c1ccccc1-c1ccccc1"
  sign qualifier: "="
  Ratio IC50: 1.3
- chemical smiles: "O=C(NCc1cccc2ccccc12)c1ccccc1-c1ccccc1"
  sign qualifier: ">"
  Ratio IC50: 10
- chemical smiles: "O=C(NCc1ccccc1)c1ccccc1-c1ccccc1"
  sign qualifier: "="
  Ratio IC50: 1
- chemical smiles: "O=C(Nc1ccncn1)c1ccccc1-c1ccccc1"
  sign qualifier: "="
  Ratio IC50: 1.6
- chemical smiles: "O=C(Nc1ccccc1)c1ccccc1-c1ccccc1"
  sign qualifier: "="
  Ratio IC50: 1.6
- chemical smiles: "O=C(Nc1cccc2ccccc12)c1ccccc1-c1ccccc1"
  sign qualifier: "="
  Ratio IC50: 1.8

###

# system: Neuronal acetylcholine receptor; alpha3/beta4 (Homo sapiens, UniProt P30926+P32297)
# test description: Antagonist activity at human nAChR alpha3/beta4 receptor expressed in HEK ts201 cells assessed as calcium accumulation by fluorescence analysis
# Type: functional, cell-based
# stated conditions: read-out: pIC50 (converted)

- compound: "CC1CC(=O)N(c2ccccc2C(=O)OCC2CCCN(CCOc3cccc(Cl)c3)C2)C1=O (stereo not drawn)"
  IC50: "11.5 µM"
- compound: "O=C(OCC1CCCN(CCc2ccccc2)C1)c1ccccc1N1C(=O)CC(Cc2ccccc2)C1=O (stereo not drawn)"
  IC50: "11.7 µM"
- compound: "CC1CC(=O)N(c2ccccc2C(=O)OCC2CCCN(CCCCOc3ccc(Cl)c(Cl)c3)C2)C1=O (stereo not drawn)"
  IC50: "74.1 µM"
- compound: "O=C(OCC1CCCN(CCCc2ccccc2)C1)c1ccc(-c2ccccc2)cc1 (stereo not drawn)"
  IC50: "18.6 µM"
- compound: "CC1(C)CC(=O)N(c2ccccc2C(=O)OCC2CCCN(CCCc3ccccc3)C2)C1=O (single isomer, unassigned)"
  IC50: "5.01 µM"
- compound: "O=C(OCC1=CCCN(CCCc2ccccc2)C1)c1ccccc1N1C(=O)CC(Cc2ccccc2)C1=O (stereo not drawn)"
  IC50: "3.72 µM"
- compound: "O=C(OCC1CCCN(CCCc2ccccc2)C1)c1ccccc1Cl (single isomer, unassigned)"
  IC50: "22.9 µM"
- compound: "O=C(OCc1ccccc1-c1ccccc1)C1CCCN(CCCc2ccccc2)C1 (single isomer, unassigned)"
  IC50: "10.2 µM"
- compound: "Cc1ccc(OCCN2CCCC(COC(=O)c3ccccc3N3C(=O)CC(C)C3=O)C2)cc1 (stereo not drawn)"
  IC50: "18.6 µM"
- compound: "c1ccc(CCCN2CCCC(COCc3cn(Cc4ccccc4-c4ccccc4)nn3)C2)cc1 (stereo not drawn)"
  IC50: "7.24 µM"
- compound: "CC1CC(=O)N(c2ccccc2C(=O)OCC2CCCN(CCOc3cccc4ccccc34)C2)C1=O (stereo not drawn)"
  IC50: "15.8 µM"
- compound: "CC1CC(=O)N(c2ccccc2C(=O)OCC2CCCN(CCc3c[nH]c4ccccc34)C2)C1=O (stereo not drawn)"
  IC50: "74.1 µM"
- compound: "O=C(CCC1CCCNC1)c1ccccc1-c1ccccc1 (stereo not drawn)"
  IC50: "6.61 µM"
